Provenance of the data: ChEMBL document CHEMBL2029209

List of Activity values.
Tested on: HCT-116
experimental.details: Induction of cell cycle arrest in human HCT116 cells assessed as minimum concentration required for G2/M versus G1 peak ratio over 2
Format: functional

{"columns": ["compound", "target.system", "reported.endpoint", "result"],
 "data": [
  ["CN1CCN(C(=O)c2cc(Nc3ncc4cc(-c5cnco5)n(C5CCCC5)c4n3)cn2C)CC1", "HCT-116", "Activity", "0.03 µM"],
  ["CN1CCN(C(=O)c2cc(Nc3ncc4cc(-c5cnn(Cc6ccccc6)c5)n(C5CCCC5)c4n3)cn2C)CC1", "HCT-116", "Activity", "0.1 µM"],
  ["CN1CCN(C(=O)c2cc(Nc3ncc4cc(-c5cncn5C)n(C5CCCC5)c4n3)cn2C)CC1", "HCT-116", "Activity", "0.003 µM"],
  ["CN1CCN(C(=O)c2cc(Nc3ncc4cc(/C=N/O)n(C5CCCC5)c4n3)cn2C)CC1", "HCT-116", "Activity", "0.002 µM"],
  ["CN1CCN(C(=O)c2cc(Nc3ncc4cc(CO)n(C5CCCC5)c4n3)cn2C)CC1", "HCT-116", "Activity", "0.1 µM"]
]}

Continue with the next compound.
Using the record for CC(O)c1cc2cnc(Nc3cc(C(=O)N4CCN(C)CC4)n(C)c3)nc2n1C1CCCC1 (centres undefined) , report its Activity.
0.1 µM

----------
List of IC50 values.
Tested on: HCT-116
experimental.details: Antiproliferative activity against human HCT116 cells
Assay type: functional, cell-based
Please state the figure in nM; there is no need to write the unit.

{"columns": ["smiles.string", "IC50, nM"],
 "data": [
  ["CN1CCN(C(=O)c2cc(Nc3ncc4cc(C(=O)O)n(C5CCCC5)c4n3)cn2C)CC1", 12300],
  ["CN1CCN(C(=O)c2cc(Nc3ncc4cc(-c5cncn5C)n(C5CCCC5)c4n3)cn2C)CC1", 5],
  ["CN1CCN(C(=O)c2cc(Nc3ncc4cc(C#N)n(C5CCCC5)c4n3)cn2C)CC1", 40]
]}

Continue with the next compound.
Using the record for `CNCc1cc2cnc(Nc3cc(C(=O)N4CCN(C)CC4)n(C)c3)nc2n1C1CCCC1` , report its IC50.
210

----------
Test system: HCT-116
experimental.details: Induction of cell cycle arrest in human HCT116 cells assessed as minimum concentration required for G2/M versus G1 peak ratio over 2
Type: functional
reported.endpoint: Activity (µM)
Please state the figure in µM; there is no need to write the unit.

Known results for molecules:
{"columns": ["smiles.string", "target.system", "Activity / µM"],
 "data": [
  ["CN1CCN(C(=O)c2cc(Nc3ncc4cc(C#N)n(C5CCCC5)c4n3)cn2C)CC1", "HCT-116", 0.065],
  ["Cc1c(-c2cc3cnc(Nc4cc(C(=O)N5CCN(C)CC5)n(C)c4)nc3n2C2CCCC2)cnn1C", "HCT-116", 0.03]
]}

Using the record for `CN1CCN(C(=O)c2cc(Nc3ncc4cc(C(N)=O)n(C5CCCC5)c4n3)cn2C)CC1` , report its Activity.
0.1
